Molecular target: T1, mouse SEMA4D, full length, on CHO-K1 cells (CHO-K1 mSEMA4D) (mouse, UniProt O09126 24-861)
T1 construct: whole, on cells; also called murine SEMA4D recombinant cells
T1 sequence (looked up): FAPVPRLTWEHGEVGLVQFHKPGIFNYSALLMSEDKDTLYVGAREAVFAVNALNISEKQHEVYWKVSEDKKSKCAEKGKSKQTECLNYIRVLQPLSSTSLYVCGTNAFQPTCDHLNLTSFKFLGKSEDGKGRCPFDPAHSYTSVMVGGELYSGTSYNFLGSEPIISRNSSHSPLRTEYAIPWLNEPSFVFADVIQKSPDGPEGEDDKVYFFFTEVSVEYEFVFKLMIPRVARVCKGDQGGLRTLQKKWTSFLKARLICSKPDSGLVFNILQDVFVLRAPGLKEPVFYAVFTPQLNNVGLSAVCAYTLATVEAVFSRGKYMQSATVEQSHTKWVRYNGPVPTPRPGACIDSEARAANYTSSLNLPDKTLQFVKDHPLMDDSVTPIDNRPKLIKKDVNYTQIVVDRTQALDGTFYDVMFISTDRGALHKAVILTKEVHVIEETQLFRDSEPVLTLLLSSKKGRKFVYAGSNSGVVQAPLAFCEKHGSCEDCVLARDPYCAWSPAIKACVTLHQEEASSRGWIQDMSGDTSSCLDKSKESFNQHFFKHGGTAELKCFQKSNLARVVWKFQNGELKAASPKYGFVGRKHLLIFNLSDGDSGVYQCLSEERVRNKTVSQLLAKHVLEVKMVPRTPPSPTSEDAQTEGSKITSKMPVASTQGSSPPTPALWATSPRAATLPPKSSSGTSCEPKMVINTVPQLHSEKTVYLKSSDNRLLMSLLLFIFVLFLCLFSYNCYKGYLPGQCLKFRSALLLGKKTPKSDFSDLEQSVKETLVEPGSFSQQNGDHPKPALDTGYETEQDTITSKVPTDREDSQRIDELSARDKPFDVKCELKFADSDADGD
Experiment: FACS, CHO-K1 mSEMA4D cells; Ab 0.107 nM
MEASURE_NAME: MFI
The response must contain the number and no unit.

Examples with their reported MFI follow.
38H2E3 (antibody, V domains shown, Mouse monoclonal antibody purified from hybridoma supernatant on protein A) VH: EFQLQQSGPEVVKPGASVKISCKASGYSFTDYNMNWMKQSKGKSLEWIGVISPDYGTTTYNQNFKDKATLTVDQSSSTAYMQLNSLTSEDSAVYYCAKDMYYVYAYYTMDYWGHGTSVTVSS VL: DVVMTQTPLSLPVSLGDQASISCRSSQSLVHSNGHTYLHWYLQRPGQSPTLLIYKVSNRFSGVPDRVSGSGSGTDFTLKISRVEAEDLGVYFCSQGTHVPRTFGGGTKLEIK :: 30.5
31C11G2 (antibody, V domains shown, Mouse monoclonal antibody purified from hybridoma supernatant on protein A) VH: EVQLQQSGAELVRPGASVKLSCTASGFNIKDEYIHWVKQRPEQGLEWIGWIDPANGHTEYASRFQAKATITADTSSNTAYLQLSSLTSEDTAVYYCTTGDYDGFVYWGQGTLVTVST VL: QIVLTQSPAIMSASPGEKVTIFCSARSSVSYMYWYQQKPGSSPKPWIYRTSNLASGVPARFSGSGSGTSYSLTISSMEAEDAATYYCQHYHTYPYTFGGGTKLEIK :: 30.6

Shifting focus to the binder that follows.
# input binder: 42B7G2 (antibody, V domains shown, Mouse monoclonal antibody purified from hybridoma supernatant on protein A) VH: QVQLQQSGAELARPGASVKLSCKASGYTFTDYGISWVKQRTGQGLEWIGEIYLRNDNSYYNEKFKGKATLTADKSSNTAYMELRSLTSEDSAVYFCARWGDHGNNYEDAMDYWGQGTSVTVSS VL: DIVLTQSPASLAMSLGKRATISCRASESVSIIGSNLIHWYQQKPGQPPKLLIYHASNLETGVPARFSGSGSRTDFTLTIDPVEEDDVAIYYCLQSRKVPYTFGGGTKLEIK ; wanted: its MFI
30.4

Entry source: patent US20220073608A1
